Please respond with reported log10 Kd for every item in the list.
# MEASUREMENT_TARGET: T1, second SH3 domain from Nck
# T1 construct: second SH3 domain of Nck; The methods say that 6His-tagged proteins were purified on Ni-IDA and that the tag could be removed with TEV protease; also called free SH3; SH3 domain proteins; source: E. coli BL21 (DE3), pET-21a, purified (Ni-IDA)
# ASSAY_EXPLANATION: ITC; SH3 domain in the cell, chemically synthesized peptide as titrant in the syringe; PBS pH 7.4, 25 °C; one-site binding model
# CONDITION_NOTES: both partners purified
// units: µM (pre-log); metric: Kd; scale: log10

Inquiry: Param item = MEETPPPVPPRTTSK [EE mutant PRM(H) peptide (two Lys residues mutated to acidic EE)] ; retrieve measured log10 Kd.
Reply text: 0.52

Inquiry: Then this binder: MKKKKTAPTPPKRS [proline-rich motif (PRM) peptide, wild type]
Reply text: 2.58

Inquiry: Then this binder: MKKTPPAVPPRTTSK [P7A mutant PRM(H) peptide]
Reply text: 1.29

Inquiry: Then this binder: MKKTPPPVAPRTTSK [P9A mutant PRM(H) peptide]
Reply text: 2.01

Inquiry: Then this binder: MKKTPPPVPPRTTSK [PRM(H) peptide, wild type]
Reply text: 1.11

Inquiry: Then this binder: ELELTAPTPPKRS [ELEL mutant PRM peptide (four Lys residues mutated to acidic ELEL)]
Reply text: 2.08

Inquiry: Then this binder: MKKTPPAVAPRTTSK [P7A P9A double mutant PRM(H) peptide]
Reply text: 2.12
